Ref: paper PMC12136788

test system: MSI1 full-length (mouse, UniProt Q61474 1-362)
Sequence (Q61474 whole entry): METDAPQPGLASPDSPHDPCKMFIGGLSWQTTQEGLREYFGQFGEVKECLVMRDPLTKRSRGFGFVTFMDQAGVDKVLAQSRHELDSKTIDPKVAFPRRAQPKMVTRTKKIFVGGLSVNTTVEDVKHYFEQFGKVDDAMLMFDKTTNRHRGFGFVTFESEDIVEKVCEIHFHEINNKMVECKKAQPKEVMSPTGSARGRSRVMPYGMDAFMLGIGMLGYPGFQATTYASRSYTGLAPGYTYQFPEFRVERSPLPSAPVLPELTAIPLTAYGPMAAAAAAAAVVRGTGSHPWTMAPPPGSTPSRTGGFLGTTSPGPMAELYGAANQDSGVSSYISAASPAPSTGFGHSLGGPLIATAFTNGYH
test protocol: nsRBNS (natural sequence RNA bind-n-seq); RBNS binding buffer (assumed for nsRBNS): 25 mM Tris pH 7.5, 150 mM KCl, 3 mM MgCl2, 0.01% Triton X-100, 500 ug/ml BSA, 20 U/ml SUPERase-In, 4 C; UNK is unkempt and MSI1 is Musashi-1; names of the RNAs are library labels; protein concentration not given here; high values mean tight binding
In all, about 5,800 sequences were measured (“enrichment r”: median about 0.54, highest 2% from about 16 on). The list comes from a sample in which the highest values are over-represented; it also holds close analogues and randomly drawn sequences.
measured parameter: binding signal

* chr20:11926050:11926151:+|3pUTR|ENSG00000132640|msi1|total|mutant (ssRNA) RNA: GGGAGUUCUACAGUCCGACGAUCAUGAAAUGGAAUGAAGGCUAAUAUGCUUGCUUUAUUUACUUUUGUAAUCUUGGAUUUUGCCGCUUUUAAAACCCGAAACCAUUGUUCUAACAAAGCAGGCAACUUUAUUCUAUAAACACACAACAGAGGAUUGAGCAUCA | 0.37 enrichment R
* chr14:53038166:53038268:-|3pUTR|ENSG00000100523|unk|total|mutant (ssRNA) RNA: GGGAGUUCUACAGUCCGACGAUCGAGCUUUUGGCAGAGUCUUCGGGGUUUUCCCGGUAUAAAAUCAUAUCAGCGAAGAGAGCCCGUUUGAUUUCUUUUCCCAGUUGGAUGCCUUUUAUUUAUUUCUCUUGCCUGAUUGCUCUACAACAGAGGAUUGAGCAUCA | 0.36 enrichment R
* chr1:214663888:214664008:+|3pUTR|ENSG00000117724|msi1|total|mutant (ssRNA) RNA: GGGAGUUCUACAGUCCGACGAUCAGGAGAAAACAAUUCCUCCGAAGUCUUAAAUAUAUUGUACUCUUCCGAUCUCCCAUGUGCCGGUAUUGAAAAAGUUUGGAAGCACUGAUCACCUGUCCGCAUUGCCAUUCCUCUACUGCACAACAGAGGAUUGAGCAUCA | 0.406 enrichment R
* chr4:124666837:124666938:-|3pUTR|ENSG00000151458|msi1|total|mutant (ssRNA) RNA: GGGAGUUCUACAGUCCGACGAUCAAUGAUUUCUUGGCAGUUUAAAAAAAAUAUUUUACCGCCGUUCCGGGAGCUGCUUUAAGCCGUUUAAAUCUGGAUUUUCCCAGCCGAAUUCUUCUCAUCUCUGGCUAAACAUGUCAGAACCAACAGAGGAUUGAGCAUCA | 0.225 enrichment R
* ENSG00000107863:be:win_551|CDS|ENSG00000107863|bound_else_gene|NA|bound_elsewhere_windowed (ssRNA) RNA: GGGAGUUCUACAGUCCGACGAUCAAGGCAACGAAGCUUAUAGCGGCAAUGCCCGCAAUAUACCUGAACCUCCACCAAUCUGCUAUCCCUGGCUGCCAUCUGCCCCAUCAGCCAUGGCACAGCCAGUUGAAAUAUCUCCUCCUGCAACAGAGGAUUGAGCAUCA | 0.51 enrichment R
* chr13:32776882:32776983:+|3pUTR|ENSG00000083642|unk|total|mutant (ssRNA) RNA: GGGAGUUCUACAGUCCGACGAUCAAAGUGUUUUGAAUUGUGUCUUAAUCUCUCCAUAUUCAACUAUUCUUCAUUUACAACAACCGUGACACCAGUAAUUAUGAGAGGCUGUCAUAUAUCAAAGCAGCUCAGGUGGGAUCAACACAACAGAGGAUUGAGCAUCA | 0.958 enrichment R
* chr13:110149936:110150037:-|3pUTR|ENSG00000187498|msi1|total|mutant (ssRNA) RNA: GGGAGUUCUACAGUCCGACGAUCUUCUUGUAUUAUAAUUAAUUUUCUACCCCCAGAGAUAAAUGUUUGUUUAUAUCACUGUCCCGCUGUUUCAAAAUUCCGGUCCCUUGGUCUGUACAAAUAACCGCAAUGUAAAAAUGGUUUCAACAGAGGAUUGAGCAUCA | 3.28 enrichment R
* chr10:92030471:92030572:+|3pUTR|ENSG00000095564|unk|FALSE|unique (ssRNA) RNA: GGGAGUUCUACAGUCCGACGAUCUAUUUUUUUAUUAACUAUUUAUUUGCUAGUUCCAUAAACCAGCUCUUUAACAUAGCUUAUAGUAAUUGAUAUUUUCUUAGAAUAAGUACAGAGCAAUAUAUCAUUAAAGGGCUAUGAAGGCAACAGAGGAUUGAGCAUCA | 39.5 enrichment R
* chr3:10101824:10101929:+|3pUTR|ENSG00000144554|unk|FALSE|unique (ssRNA) RNA: GGGAGUUCUACAGUCCGACGAUCAAAAUCUCUGAGUCAUGAUUCUGGACUUUGGGAGCUAGUUUUGAAACUCUGAUUUAUUGUAGAACUUAGGCUUGUACCAAUUUUACAAAUAAAUUCUGUUCUAAGUUCUGCCUCAGUUGCCAACAGAGGAUUGAGCAUCA | 0.376 enrichment R
* ENSG00000005810:stop:overlap|stop_codon|ENSG00000005810|stop_codon|NA|stop_codon (ssRNA) RNA: GGGAGUUCUACAGUCCGACGAUCCACCCACUGGGGAAGAGUUUGCUCUGGGAUGUGGAGUGUGCAGAAAUGCCCACACUUUUUAGAACACGCAGAUCCUUUGUCUACAGAGAGAAAAAUUGCCUUCAUCCCCCAAGAGGAUGCCAACAGAGGAUUGAGCAUCA | 0.439 enrichment R
* chr4:124666837:124666938:-|3pUTR|ENSG00000151458|msi1|FALSE|unique (ssRNA) RNA: GGGAGUUCUACAGUCCGACGAUCAAUGAUUUCUUGGCAGUUUAAAAAAAAUAUUUUAUAGUAGUUUAGGGAGCUGCUUUAAGUAGUUUAAAUCUGGAUUUUCCCAGUAGAAUUCUUCUCAUCUCUGGCUAAACAUGUCAGAACCAACAGAGGAUUGAGCAUCA | 23.2 enrichment R
* chr5:171862525:171862626:-|3pUTR|ENSG00000072803|msi1|total|mutant (ssRNA) RNA: GGGAGUUCUACAGUCCGACGAUCGACAGUGCAUGGAAAGGACGUUGGCAUCCAAUUGGCACUCCUUCUCCCUUAUUCAAUAUCCGGUUUGAUUUGCCCUUCGCCAUUGUUUCCAAAGAUCAAGGAAUGUCAAUAACAUUUUAACAACAGAGGAUUGAGCAUCA | 0.579 enrichment R
* chr20:50583650:50583751:+|3pUTR|ENSG00000196396|msi1|FALSE|unique (ssRNA) RNA: GGGAGUUCUACAGUCCGACGAUCUUCCUAAGCCUGUUGCUGAAGUCAUUGUCGCUCAGCAAUAGGGUGCAGUUUUCCAGGAAUAGGCAUUUGCCUAAUUCCUGGCAUGACACUCUAGUGACUUCCUGGUGAGGCCCAGCCUGUCAACAGAGGAUUGAGCAUCA | 0.237 enrichment R
